For each record, write down the corresponding pEC50.
target: human GcgR (Homo sapiens, UniProt P47871); experiment: Functional cAMP activity in the presence of 1% HSA; assay type: cell-based; settings: read-out: cAMP Rel EC50, hGcgR
Sequence (P47871 26-477): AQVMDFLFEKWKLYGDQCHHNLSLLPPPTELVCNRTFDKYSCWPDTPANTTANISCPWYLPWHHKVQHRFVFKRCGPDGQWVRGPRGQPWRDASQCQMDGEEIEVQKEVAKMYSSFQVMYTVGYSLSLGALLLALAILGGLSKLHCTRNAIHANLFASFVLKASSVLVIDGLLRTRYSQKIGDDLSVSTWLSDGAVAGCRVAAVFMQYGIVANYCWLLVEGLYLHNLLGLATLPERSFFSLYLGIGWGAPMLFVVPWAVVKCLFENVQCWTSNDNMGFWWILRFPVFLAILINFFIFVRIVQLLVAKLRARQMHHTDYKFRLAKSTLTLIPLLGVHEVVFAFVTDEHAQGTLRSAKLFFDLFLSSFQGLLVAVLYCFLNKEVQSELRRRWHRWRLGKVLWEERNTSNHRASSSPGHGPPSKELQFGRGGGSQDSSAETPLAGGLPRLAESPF
Starred links: 1 amine or outer side, 2 acyl side, 3 side chain; linkers in the order of their positions; H or OH if unused. Non-standard residues stand in square brackets, D forms with d. Groups on a side chain read outwards from the residue. *: point of attachment. C18 diacid = O=C(O)CCCCCCCCCCCCCCCCC(=O)*; αMePhe(2-F) = C[C@](N)(Cc1ccccc1F)C(=O)O; γGlu = O=C(O)[C@H](CCC(=O)[*:2])N[*:1]; αMe4Pal = C[C@](N)(Cc1ccncc1)C(=O)O; αMeY = C[C@](N)(Cc1ccc(O)cc1)C(=O)O; 4Pal = N[C@@H](Cc1ccncc1)C(=O)O; αMeL = CC(C)C[C@](C)(N)C(=O)O; αMeS = C[C@](N)(CO)C(=O)O; Orn = NCCC[C@H](N)C(=O)O; AEEA = NCCOCCOCC(=O)O; Aib = CC(C)(N)C(=O)O
Reminder that pEC50 means the negative base-10 logarithm of the concentration expressed in mol/L.

Task: Report its pEC50 with human GcgR (Homo sapiens, UniProt P47871) as the test system: H-Y[Aib]QGTFTSD[4Pal]SQ[αMeL]LDKK([Glu-Glu-γGlu-C18 diacid])AQ[αMe4Pal]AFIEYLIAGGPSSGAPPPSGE-NH2 [Example 1087]
Result: 5.61

Task: // fetch pEC50; item: H-Y[Aib]QGT[αMePhe(2-F)]TSD[4Pal][αMeS]I[αMeL]LD[Orn]K([γGlu-γGlu-C18 diacid])AQ[αMe4Pal]EFI[dE][αMeY]LIEGGPSSGEPPPSGE-NH2 [Example 1151] ; system: human GcgR (Homo sapiens, UniProt P47871)
Result: 6.69

Task: State recorded pEC50 with human GcgR (Homo sapiens, UniProt P47871), entry H-Y[Aib]QGTFTSD[4Pal]SQ[αMeL]LDKK([AEEA-γGlu-C18 diacid])AQ[αMe4Pal]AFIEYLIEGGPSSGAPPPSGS-NH2 [Example 826] , no comment.
Result: 6.36

---

Can you tell me EC50 for the items I'm about to list?
target: hGcgR (Homo sapiens); assay: Functional cAMP activation in the presence of 0.1% casein (no HSA); type: cell-based; settings: read-out: Relative cAMP EC50, hGcgR;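 further: intracellular cAMP rise after 30 min at 37 °C, read by HTRF against a cAMP standard curve, scaled from buffer only (0%) to maximal control ligand response (100%)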
Sequence (P47871 26-477): as the sequence (P47871 26-477) above
Starred links: 1 amine or outer side, 2 acyl side, 3 side chain; linkers in the order of their positions; H or OH if unused. Non-standard residues stand in square brackets, D forms with d. Groups on a side chain read outwards from the residue. No end group written: not given here. *: point of attachment. C18 diacid = O=C(O)CCCCCCCCCCCCCCCCC(=O)*; αMePhe(2-F) = C[C@](N)(Cc1ccccc1F)C(=O)O; γGlu = O=C(O)[C@H](CCC(=O)[*:2])N[*:1]; αMe4Pal = C[C@](N)(Cc1ccncc1)C(=O)O; αMeY = C[C@](N)(Cc1ccc(O)cc1)C(=O)O; 4Pal = N[C@@H](Cc1ccncc1)C(=O)O; αMeL = CC(C)C[C@](C)(N)C(=O)O; αMeS = C[C@](N)(CO)C(=O)O; Orn = NCCC[C@H](N)C(=O)O; AEEA = NCCOCCOCC(=O)O; Aib = CC(C)(N)C(=O)O
Give the value in nM but do not write nM after it.

Task: Give EC50 for the following substance: H-Y[Aib]QGT[αMePhe(2-F)]TSD[4Pal][αMeS]I[αMeL]LD[Orn]K([γGlu-γGlu-C18 diacid])AQ[Aib][Orn]FI[dE][αMeY]LAEGGPSSGEPPPSGTGE-NH2 [Example 545]
Result: 2.71

Task: Find the measured EC50 of Y[Aib]QGT[αMePhe(2-F)]TSDYSILLDKK([γGlu-γGlu-C18 diacid])AQ[Aib]AFIEYLEEGGPSSGAPPPSGE-NH2 [Example 435] and report it.
Result: 3.01

Task: Please report EC50 for the following substance: H-Y[Aib]QGT[αMePhe(2-F)]TSD[4Pal][αMeS]I[αMeL]LD[Orn]K([AEEA-γGlu-C18 diacid])AQ[Aib][Orn]FI[dE][αMeY]LIEGGPSSGEPPPSEG-NH2 [Example 401]
Result: 1.99

Task: Assign EC50 to the following record: H-Y[Aib]QGT[αMePhe(2-F)]TSD[4Pal][αMeS]I[αMeL]LD[Orn]K([AEEA-γGlu-C18 diacid])AQ[αMe4Pal]EFI[dE][αMeY]LVEGGPSSGAPPPSGS-NH2 [Example 694]
Result: 2.04

Task: Specify reported EC50 for the substance shown: Y[Aib]QGT[αMePhe(2-F)]TSD[4Pal][αMeS]I[αMeL]LD[Orn]K([γGlu-γGlu-C18 diacid])AQ[αMe4Pal]EFI[dE][αMeY]LVEGGPSSGEPPPSGSEE-NH2 [Example 740]
Result: 5.34
